Target: HLA-A*02:01 (Homo sapiens, UniProt P04439, D140Y/D185E/D98H/E176V/E277Q/G131W/G231S/I119V/I121R/I166T/I218V/L300P/L318F/N151K/N90K/P208A/P217A/Q86G/Q94H/R138H/R169H/T345S)
Experiment: MHC binding assay (UV-ligand exchange, β2m ELISA, peptide exchange yield)
Conditions: MHC class I binding score; binding to HLA-A*02:01 ranged by peptide exchange yield (UV-ligand exchange, β2m ELISA)
endpointName: Peptide exchange

[[record]]
substance = "25 (FLPDEPYIKV; listed as Homo sapiens) [compound 25]"
endpointname = "Peptide exchange"
result = "″+++″ (≧50% = +++)"

[[record]]
substance = "531 (YTLPIASSIRL; listed as Homo sapiens) [compound 531]"
endpointname = "Peptide exchange"
result = "″+++″ (≧50% = +++)"

[[record]]
substance = "11 (KIFEMLEGV; listed as Homo sapiens) [compound 11]"
endpointname = "Peptide exchange"
result = "″+++″ (≧50% = +++)"

[[record]]
substance = "99 (ALVSKGLATV; listed as Homo sapiens) [compound 99]"
endpointname = "Peptide exchange"
result = "″++″ (≧20% = ++)"

[[record]]
substance = "237 (ALLEASGTLLL; listed as Homo sapiens) [compound 237]"
endpointname = "Peptide exchange"
result = "″++++″ (≧75% = ++++)"


INPUT: Record request: Peptide exchange value, item 242 (AIAYILQGV; listed as Homo sapiens) [compound 242]
OUTPUT: ″++″ (≧20% = ++)

INPUT: Another substance: 492 (SLFDGFADGLGV; listed as Homo sapiens) [compound 492]
OUTPUT: ″+++″ (≧50% = +++)

INPUT: Moving on to 480 (ALLEDSCHYL; listed as Homo sapiens) [compound 480]
OUTPUT: ″+++″ (≧50% = +++)

INPUT: Also need 91 (IMQDFPAEIFL; listed as Homo sapiens) [compound 91] , thanks.
OUTPUT: ″++++″ (≧75% = ++++)
